- test-summary: Crossover pharmacokinetics in dogs, oral vs 30-min intravenous infusion, LC-MS/MS
- Type: in vivo, male beagle dogs
- measurement-context: dog, plasma; male beagle dogs 1-3 and median; 30-min iv infusion; 2 mg/kg/h (free form); read-out: Tmax of L-lysine-d-amphetamine
- Method: This was a non-randomized, two-treatment crossover study. All animals were maintained on their normal diet and were fasted overnight prior to each dose administration. L-lysine-d-amphetamine dose was based on the body weight measured on the morning of each dosing day. […] Microsoft Excel (Version 6, Microsoft Corp., Redmond, Wash.) was used for calculation of mean plasma concentration and graphing of the plasma concentration-time data. […] Half-life was calculated as In2/λz. […]
readout-kind: Tmax (min)
Kindly answer with a numeric value in min, unit omitted.

Q) Answer with the recorded Tmax for the compound listed here: CC(Cc1ccccc1)NC(=O)C(N)CCCCN (stereo not shown)
A) 29.4

* * *

- test-summary: Intravenous bioavailability of hydrocodone conjugates in rats, LC/MS/MS
- measurement-context: intravenous, 1 mg/kg dose, hydrocodone plus hydromorphone
Where a SMILES comes first, the peptide text is derived from it. The star is where a group is joined. X1 = COc1ccc2c3c1O[C@H]1C(O*)=CC[C@H]4[C@@H](C2)N(C)CC[C@]314
readout-kind: Cmax (ng/mL)
The reply should be a number in ng/mL, with the unit left off.

Q) Input CC[C@H](C)[C@H](NC(=O)[C@H](Cc1ccccc1)NC(=O)[C@H](Cc1ccccc1)NC(=O)[C@H](CCC(=O)O)NC(=O)[C@@H](N)CCC(=O)O)C(=O)OC1=CC[C@H]2[C@H]3Cc4ccc(OC)c5c4[C@@]2(CCN3C)[C@H]1O5 [EEFFI[SEQ ID NO: 5]-HC] (H-EEFFI-X1) , output reported Cmax.
A) 89

Q) Item COc1ccc2c3c1O[C@H]1C(OC(=O)[C@H](Cc4ccccc4)NC(=O)[C@H](Cc4ccccc4)NC(=O)[C@H](Cc4ccccc4)NC(=O)[C@H](CCC(=O)O)NC(=O)[C@@H](N)CCC(=O)O)=CC[C@H]4[C@@H](C2)N(C)CC[C@]314 [EEFFF[SEQ ID NO: 3]-HC] (H-EEFFF-X1) : provide Cmax
A) 135

Q) Answer with the recorded Cmax for the compound listed here: CC[C@H](C)[C@H](NC(=O)[C@H](Cc1ccc(O)cc1)NC(=O)[C@@H](N)Cc1ccc(O)cc1)C(=O)OC1=CC[C@H]2[C@H]3Cc4ccc(OC)c5c4[C@@]2(CCN3C)[C@H]1O5 [YYI-HC, Tyr-Tyr-Ile-Hydrocodone]
A) 13

Q) Give reported Cmax value for CC[C@H](C)[C@H](NC(=O)[C@H](Cc1ccccc1)NC(=O)[C@H](Cc1ccccc1)NC(=O)[C@H](Cc1ccc(O)cc1)NC(=O)[C@@H](N)Cc1ccc(O)cc1)C(=O)OC1=CC[C@H]2[C@H]3Cc4ccc(OC)c5c4[C@@]2(CCN3C)[C@H]1O5 [YYFFI[SEQ ID NO: 8]-HC] (H-YYFFI-X1)
A) 171

* * *

- test-summary: Oral bioavailability of hydrocodone conjugates in rats, LC/MS/MS
- measurement-context: male, Sprague-Dawley, rat, plasma, po, 25 mg/kg
readout-kind: concentration at 0 h (µg/mL)
Number only, in µg/mL; omit the unit.

Q) Please look at this compound and report its concentration at 0 h: COc1ccc2c3c1O[C@H]1C(=O)CC[C@H]4[C@@H](C2)N(C)CC[C@]314 [Hydrocodone, reference compound]
A) 0
